- Study Target: Nitric oxide synthase, inducible (Homo sapiens, UniProt P35228)
- Sequence (P35228 whole entry): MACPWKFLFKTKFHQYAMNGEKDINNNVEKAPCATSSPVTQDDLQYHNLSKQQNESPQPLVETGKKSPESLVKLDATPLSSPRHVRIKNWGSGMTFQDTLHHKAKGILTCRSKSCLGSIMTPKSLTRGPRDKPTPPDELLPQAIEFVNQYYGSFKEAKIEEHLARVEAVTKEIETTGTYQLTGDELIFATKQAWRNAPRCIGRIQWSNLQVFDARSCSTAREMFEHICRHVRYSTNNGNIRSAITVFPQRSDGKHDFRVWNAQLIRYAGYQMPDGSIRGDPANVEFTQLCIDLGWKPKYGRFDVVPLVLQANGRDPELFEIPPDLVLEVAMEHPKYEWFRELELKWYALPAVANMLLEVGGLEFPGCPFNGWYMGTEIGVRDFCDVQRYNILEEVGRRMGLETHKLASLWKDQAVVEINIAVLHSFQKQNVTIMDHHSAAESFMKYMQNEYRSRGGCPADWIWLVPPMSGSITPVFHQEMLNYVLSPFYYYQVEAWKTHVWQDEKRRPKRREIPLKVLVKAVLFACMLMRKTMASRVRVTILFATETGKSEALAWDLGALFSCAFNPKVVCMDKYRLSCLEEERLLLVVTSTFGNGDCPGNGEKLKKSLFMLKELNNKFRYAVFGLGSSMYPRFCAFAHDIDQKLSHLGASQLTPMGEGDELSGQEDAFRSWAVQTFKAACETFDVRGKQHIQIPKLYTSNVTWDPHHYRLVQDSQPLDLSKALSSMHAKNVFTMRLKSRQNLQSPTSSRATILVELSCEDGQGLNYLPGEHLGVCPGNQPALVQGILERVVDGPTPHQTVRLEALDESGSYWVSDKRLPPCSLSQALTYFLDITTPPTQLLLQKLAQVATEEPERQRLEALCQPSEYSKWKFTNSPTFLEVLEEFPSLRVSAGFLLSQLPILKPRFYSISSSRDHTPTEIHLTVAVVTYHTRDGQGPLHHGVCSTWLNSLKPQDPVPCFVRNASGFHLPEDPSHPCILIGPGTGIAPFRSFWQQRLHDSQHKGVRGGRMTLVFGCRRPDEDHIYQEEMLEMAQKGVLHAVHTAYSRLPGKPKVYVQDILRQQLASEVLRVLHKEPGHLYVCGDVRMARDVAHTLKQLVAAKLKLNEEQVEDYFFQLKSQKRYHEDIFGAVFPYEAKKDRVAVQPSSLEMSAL
- Method Description: Inhibition of human iNOS expressed in human HEK293 cells assessed as nitrite accumulation after 18 hrs by 2,3-diaminonapthalene assay
Property Label: EC50 (nM)
Record the value in nM, omitting the unit from your answer.

Past entries and their recorded results:
- Smi: "Cn1cnc(CN(CCCNCc2ccc3c(c2)OCO3)c2nc(-n3ccnc3)ns2)c1"
  Study Target: "Nitric oxide synthase, inducible (Homo sapiens, UniProt P35228)"
  EC50 / nM: 71
- Smi: "NC(=O)CN(CCCNCc1ccc2c(c1)OCO2)c1nc(-n2ccnc2)ns1"
  Study Target: "Nitric oxide synthase, inducible (Homo sapiens, UniProt P35228)"
  EC50 / nM: 81
- Smi: "c1cn(-c2nsc(N(CCCNCc3ccc4c(c3)OCO4)Cc3nnn[nH]3)n2)cn1"
  Study Target: "Nitric oxide synthase, inducible (Homo sapiens, UniProt P35228)"
  EC50 / nM: 4000
- Smi: "CN(CCCNCc1ccc2c(c1)OCCO2)c1nc(-n2ccnc2)ns1"
  Study Target: "Nitric oxide synthase, inducible (Homo sapiens, UniProt P35228)"
  EC50 / nM: 48
- Smi: "COc1ccc(CNCCCN(C)c2nc(-n3ccnc3)ns2)cc1"
  Study Target: "Nitric oxide synthase, inducible (Homo sapiens, UniProt P35228)"
  EC50 / nM: 360

Now consider a different compound.
Ask | Field request: EC50 | item: c1csc(CN(CCCNCc2ccc3c(c2)OCO3)c2nc(-n3ccnc3)ns2)c1
Reply | 9
